Readings of solubility kinetic for the listed compounds
test: Kinetic solubility in PBS pH 7.4, HPLC-UV (Example 21, Table 27); assay type: physicochemical; conditions: phosphate buffered saline, aqueous buffer, kinetic from dmso stock, 0.5 M PBS, shaken minimum 24 h at approximately 25° C., HPLC-UV 270 nm
Give your result in µM as a bare value.

Reference set (8 entries):
Compound	Numeric Readout
COc1cc(CC(=O)N2CCOC(CN(C)C)C2)ccc1CN1CCCN(c2ccc(OC)c(OCCCC3CC3)c2)C1=O (stereo not drawn)	455
CCCCCOc1cc(N2CC(C)CN(Cc3ccc(CC(=O)N4CCNC(=O)C4)cc3OC)C2=O)ccc1OC (stereo not drawn)	450
CCCCCOc1cc(N2CCCN(Cc3ccnc4c3ccn4CC(=O)N3CCO[C@@H](COC)C3)C2=O)ccc1OC	436
CCCCCOc1cc(N2CCCN(Cc3ccnc4c3c(Cl)cn4CC(=O)N3CC(O)C3)C2=O)ccc1OC	47
COc1cc(CC(=O)N2CCOC(CN(C)C)C2)ccc1CN1CCCN(c2ccc(OC)c(OCCCC(C)(F)F)c2)C1=O (stereo not drawn)	435
COc1cc(CNC(C)=O)ccc1CN1CCCN(c2ccc(OC)c(OCCCC3CC3)c2)C1=O	195
CCCCCOc1cc(N2CCCN(Cc3ccc(CC(=O)N4CCO[C@H](CN(C)C)C4)cc3OC)C2=O)ccc1OC (stereo in doubt)	417
CCCCCOc1cc(N2CCCN(Cc3cccc4c3ccn4CC(=O)N3CCN(C)C(=O)C3)C2=O)ccc1OC	287

Next, consider the following compound.
### Prompt Bench note: what solubility kinetic did `CCCCCOc1cc(N2CCCN(Cc3ccnc4c3c(Cl)cn4CC(=O)N(C)C)C2=O)ncc1OC` show?
### Response 271

====

molecular target: human C5 complement protein (Homo sapiens, UniProt P01031); test: Surface plasmon resonance (SPR), immobilized human C5, 37° C. (Example 27, Table 31); format: binding; details: lowest value obtained where a range of concentrations was analyzed (Table 31)
Kd strictly under 400 pM means true (1); at 400 pM or over means false (0).

Compound	Label Class
CCCCCOc1cc(N2CC(CO)CN(Cc3ccc(CC(=O)N(C)C)cc3OC)C2=O)ccc1OC (stereo not drawn) [SC0172]	false (0)
CCCCCOc1cc(N2CC[C@H](C)N(Cc3cccc4c3c(C)cn4CC(=O)N(C)C)C2=O)ccc1OC [SC0107]	true (1)
CCCCCOc1cc(N2CC[C@H](C)N(Cc3cccc4c3c(Cl)cn4CC(=O)N(C)C)C2=O)ccc1OC [SC0112]	true (1)
CCCCCOc1cc(N2CC(C)CN(Cc3ccc(CC(=O)N4CCNC(=O)C4)cc3OC)C2=O)ccc1OC (stereo not drawn) [SC0163]	false (0)
CCCCCOc1cc(N2CC(CO)CN(Cc3ccc(CC(=O)N4CCCC4)cc3OC)C2=O)ccc1OC (stereo not drawn) [SC0184]	false (0)
COc1ccc(N2CC[C@H](C)N(Cc3cccc4c3ccn4CC(=O)N(C)C)C2=O)cc1OCCCC1CC1 [SC0174]	false (0)

### Prompt Below 400 pM on Kd? Entry CCCCCOc1cc(N2CC[C@H](C)N(Cc3cccc4[nH]cc(C)c34)C2=O)ccc1OC [SC0148]
### Response false (0)

### Prompt Below 400 pM on Kd? Entry CCCCCOc1cc(N2CC[C@H](C)N(Cc3ccnc4c3c(Cl)cn4CC(=O)N3CCOC3)C2=O)ccc1OC [SC0113]
### Response true (1)

### Prompt Below 400 pM on Kd? Entry COc1cc(CC(N)=O)ccc1CN1CC(C)CN(c2ccc(OC)c(OCCCC3CC3)c2)C1=O (stereo not drawn) [SC0179]
### Response false (0)

### Prompt Below 400 pM on Kd? Entry CCCCCOc1cc(N2CC[C@H](C)N(Cc3cccc4c3ccn4CC(=O)N(C)CC#N)C2=O)ccc1OC [SC0168]
### Response false (0)

### Prompt Below 400 pM on Kd? Entry COc1ccc(N2CC[C@H](C)N(Cc3cccc4c3c(Cl)cn4CC(=O)N(C)C)C2=O)cc1OCCCC1CC1 [SC0116]
### Response true (1)

### Prompt Below 400 pM on Kd? Entry CCCCCOc1cc(N2CC(CO)CN(Cc3ccc(CC(=O)N4CCCOCC4)cc3OC)C2=O)ccc1OC (stereo not drawn) [SC0190]
### Response false (0)

### Prompt Below 400 pM on Kd? Entry CCCCCOc1cc(N2CC[C@H](C)N(Cc3cccc4c3c(C)cn4CC(=O)N(C)C3CCN(CC)C3)C2=O)ccc1OC (stereo partly drawn) [SC0105]
### Response true (1)

### Prompt Below 400 pM on Kd? Entry CCCCCOc1cc(N2CC[C@H](C)N(Cc3cccc4c3c(Cl)cn4CC(=O)N3CCOC(CN(C)C)C3)C2=O)ccc1OC (stereo partly drawn) [SC0154]
### Response true (1)

### Prompt Below 400 pM on Kd? Entry CCCCCOc1cc(N2CC[C@H](C)N(Cc3ccnc4c3c(Cl)cn4CC(=O)N3CC(O)C3)C2=O)ccc1OC [SC0120]
### Response true (1)

### Prompt Below 400 pM on Kd? Entry COc1ccc(N2CC[C@H](C)N(Cc3cccc4c3c(Cl)cn4CC(=O)N3CCOCC3)C2=O)cc1OCCCC1CC1 [SC0115]
### Response true (1)

### Prompt Below 400 pM on Kd? Entry CCCCCOc1cc(N2CC[C@H](C)N(Cc3cccc4c3c(C)cn4CC(=O)N3CCCOCC3)C2=O)ccc1OC [SC0103]
### Response true (1)

### Prompt Below 400 pM on Kd? Entry CCCCCOc1cc(N2CC(CO)CN(Cc3ccc(CC(=O)N4CCNC(=O)C4)cc3OC)C2=O)ccc1OC (stereo not drawn) [SC0178]
### Response false (0)

### Prompt Below 400 pM on Kd? Entry COc1ccc(N2CC[C@H](C)N(Cc3ccnc4c3c(Cl)cn4CC(=O)N(C)C)C2=O)cc1OCCCC1CC1 [SC0119]
### Response false (0)

### Prompt Below 400 pM on Kd? Entry COc1ccc(N2CC[C@H](C)N(Cc3cccc4c3c(Cl)cn4CC(=O)N(C)C)C2=O)cc1OCCCC1CCC1 [SC0125]
### Response true (1)

====

Readings of pKd for the listed compounds
target: human C5 complement protein (Homo sapiens); assay: Surface plasmon resonance (SPR), immobilized human C5, 37° C. (Example 18, Table 24); type: binding; conditions: lowest value obtained where a range of concentrations was analyzed
The quantity pKd is defined as the negative base-10 logarithm of the molar concentration.

Reference set (3 entries):
Compound	pKd
CCCCCOc1cc(N2CCCN(Cc3ccc(CNC4CCN(C)C4=O)cc3OC)C2=O)ccc1OC (stereo not shown)	8.98
CCCCCOc1cc(N2CCCN(Cc3ccnc4c3c(Cl)cn4CC(=O)N3CCCC3)C2=O)ccc1OC	9.51
CCCCCOc1cc(N2CCCN(Cc3ccnc4c3c(Cl)cn4CC(=O)N(C)CCC#N)C2=O)ccc1OC	10.24

### Prompt Bench note: what pKd did `COc1cc(CCN2CCCC2)ccc1CN1CCCN(c2ccc(OC)c(OCCCCC3CC3)c2)C1=O` show?
### Response 9.61

====

molecular target: Human C5 (Homo sapiens, UniProt P01031); construct: purchased Complement Technology; assay: Surface plasmon resonance (SPR), compounds on immobilized human C5 (Example 2, Table 5); assay type: binding; conditions: lowest value where a range of compound concentrations were analyzed
Sequence (P01031 19-1676): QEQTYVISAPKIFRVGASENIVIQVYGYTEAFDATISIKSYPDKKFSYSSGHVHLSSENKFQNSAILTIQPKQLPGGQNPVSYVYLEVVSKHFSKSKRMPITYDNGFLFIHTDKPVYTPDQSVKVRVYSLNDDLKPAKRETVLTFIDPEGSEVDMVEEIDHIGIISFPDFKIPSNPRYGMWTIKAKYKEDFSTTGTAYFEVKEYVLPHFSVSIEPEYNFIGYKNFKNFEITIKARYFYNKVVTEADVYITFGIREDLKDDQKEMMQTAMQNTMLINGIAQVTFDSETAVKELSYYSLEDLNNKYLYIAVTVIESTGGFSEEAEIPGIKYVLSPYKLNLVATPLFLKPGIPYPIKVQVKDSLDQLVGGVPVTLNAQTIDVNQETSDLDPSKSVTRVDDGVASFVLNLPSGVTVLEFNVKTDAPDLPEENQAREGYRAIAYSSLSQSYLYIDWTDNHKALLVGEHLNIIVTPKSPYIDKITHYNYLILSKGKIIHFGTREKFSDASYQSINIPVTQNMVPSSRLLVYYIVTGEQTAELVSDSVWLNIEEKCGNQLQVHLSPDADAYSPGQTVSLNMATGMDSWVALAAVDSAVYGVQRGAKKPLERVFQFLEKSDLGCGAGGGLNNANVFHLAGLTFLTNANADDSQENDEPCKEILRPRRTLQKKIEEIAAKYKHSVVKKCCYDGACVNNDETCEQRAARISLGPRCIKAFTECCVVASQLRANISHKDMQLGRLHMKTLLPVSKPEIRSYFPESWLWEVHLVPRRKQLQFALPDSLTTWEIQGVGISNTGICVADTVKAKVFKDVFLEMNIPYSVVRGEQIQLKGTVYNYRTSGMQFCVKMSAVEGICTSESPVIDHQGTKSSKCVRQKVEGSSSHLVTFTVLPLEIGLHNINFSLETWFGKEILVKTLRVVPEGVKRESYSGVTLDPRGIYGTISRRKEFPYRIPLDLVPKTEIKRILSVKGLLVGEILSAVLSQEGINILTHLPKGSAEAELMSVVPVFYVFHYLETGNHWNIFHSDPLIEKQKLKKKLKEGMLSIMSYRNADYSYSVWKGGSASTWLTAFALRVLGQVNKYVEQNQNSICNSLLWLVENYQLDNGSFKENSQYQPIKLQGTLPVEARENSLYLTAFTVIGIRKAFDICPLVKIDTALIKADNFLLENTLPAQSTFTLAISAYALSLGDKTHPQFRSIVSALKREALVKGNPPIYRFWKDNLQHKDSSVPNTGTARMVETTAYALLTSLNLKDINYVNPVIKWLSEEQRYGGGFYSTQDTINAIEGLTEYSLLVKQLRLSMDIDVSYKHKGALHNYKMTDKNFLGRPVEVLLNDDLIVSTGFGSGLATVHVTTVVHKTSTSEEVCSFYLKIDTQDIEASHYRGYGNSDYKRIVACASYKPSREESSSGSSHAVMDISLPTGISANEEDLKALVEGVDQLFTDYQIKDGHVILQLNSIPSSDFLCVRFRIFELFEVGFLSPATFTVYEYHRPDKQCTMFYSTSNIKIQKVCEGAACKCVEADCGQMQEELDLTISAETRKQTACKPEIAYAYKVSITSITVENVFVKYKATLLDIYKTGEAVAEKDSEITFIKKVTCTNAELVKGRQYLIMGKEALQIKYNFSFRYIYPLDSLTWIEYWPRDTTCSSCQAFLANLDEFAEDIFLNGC
Reported Property: pKd
The quantity pKd is defined as the negative base-10 logarithm of the molar concentration.

Molecule	Reported Property	Numeric Readout
COc1ccc(NC(=O)NCC(O)c2ccc(O)cc2)cc1OCCCC(C)C (stereo not drawn)	pKd	5.44

### Prompt Bench note: what pKd did `COCCCOc1cc(NC(=O)N[C@@H](CO)c2ccccc2)ccc1OC` show?
### Response 6.51

### Prompt Bench note: what pKd did `COc1ccc(NC(=O)N[C@@H](CO)c2ccccc2)cc1OCCCCC(F)(F)F` show?
### Response 6.21

### Prompt Bench note: what pKd did `COc1ccc(NC(=O)NCCc2ccccc2)cc1OCCCC(C)C` show?
### Response 5.12

### Prompt Bench note: what pKd did `COc1ccc(NC(=O)NCc2ccccc2O)cc1CCCCC(C)C` show?
### Response 7.43

====

target: Human C5 (Homo sapiens); construct: purchased Complement Technology; assay: Surface plasmon resonance (SPR), immobilized human C5 (Example 9, Table 18); format: binding; conditions: immobilized human C5, equilibrium dissociation constant; read-out: SPR C5 EQ KD
Reported Property: pKd
The quantity pKd is defined as the negative base-10 logarithm of the molar concentration.

Test Smiles	Reported Property	Numeric Readout
COCCNc1cc(CNC(=O)Nc2ccc(OC)c(OCCCC(C)C)c2)ccn1	pKd	6.59
COc1ccc(NC(=O)NCc2cccc3cccnc23)cc1OCCCC(C)C	pKd	6.05

Next, consider the following compound.
### Prompt Bench note: what pKd did `COc1ccc(NC(=O)NCc2cccc(O)c2O)cc1OCCCC(C)C` show?
### Response 7.40

Where these numbers come from: patent US20230115176A1
